# Study Target: CYP1A2 (Homo sapiens, UniProt P05177)
# Sequence (P05177 whole entry): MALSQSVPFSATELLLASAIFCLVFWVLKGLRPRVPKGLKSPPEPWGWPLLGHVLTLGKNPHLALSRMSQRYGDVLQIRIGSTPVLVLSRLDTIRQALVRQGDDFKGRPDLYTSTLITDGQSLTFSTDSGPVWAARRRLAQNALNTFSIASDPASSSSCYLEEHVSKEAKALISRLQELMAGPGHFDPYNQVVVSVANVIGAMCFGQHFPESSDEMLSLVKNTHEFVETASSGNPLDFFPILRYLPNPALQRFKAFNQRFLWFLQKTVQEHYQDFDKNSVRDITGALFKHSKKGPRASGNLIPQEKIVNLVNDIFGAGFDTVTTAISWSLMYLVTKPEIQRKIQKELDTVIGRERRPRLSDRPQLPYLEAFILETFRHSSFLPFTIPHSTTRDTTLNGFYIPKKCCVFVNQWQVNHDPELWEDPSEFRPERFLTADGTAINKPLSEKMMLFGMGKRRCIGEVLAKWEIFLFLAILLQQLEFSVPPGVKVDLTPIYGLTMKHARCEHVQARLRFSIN
# Assay Details: Inhibition of CYP1A2 (unknown origin) at 10 uM relative to control
# Assay type: ADME
Value Type: inhibition at 10 µM (%)
Report the value in % with no unit label.

Ask: Could you please provide reported inhibition at 10 µM for O=c1[nH]c(Nc2cc(Cl)cc(Cl)c2)nc2cccc(O)c12 ? Thanks!
Result: 65

Ask: Given O=c1[nH]c(Nc2cc(Cl)cc(Cl)c2)nc2cc(Cl)ccc12 , respond with its inhibition at 10 µM.
Result: 15

###

# Assay Details: AUC in rat at 10 mg/kg, po
# Type: ADME, organism-based
# Set-up: dose 10 mg/kg
# Particulars: in vivo
Value Type: AUC (ng·h/mL)
Your answer is read as ng·h/mL, so omit the unit and give the number.

Ask: Let me know recorded AUC for O=c1[nH]c(Nc2cc(Cl)cc(Cl)c2)nc2cccc(O)c12 , thanks.
Result: 1010

###

# Study Target: CYP2C9 (Homo sapiens)
# Sequence (P11712 whole entry): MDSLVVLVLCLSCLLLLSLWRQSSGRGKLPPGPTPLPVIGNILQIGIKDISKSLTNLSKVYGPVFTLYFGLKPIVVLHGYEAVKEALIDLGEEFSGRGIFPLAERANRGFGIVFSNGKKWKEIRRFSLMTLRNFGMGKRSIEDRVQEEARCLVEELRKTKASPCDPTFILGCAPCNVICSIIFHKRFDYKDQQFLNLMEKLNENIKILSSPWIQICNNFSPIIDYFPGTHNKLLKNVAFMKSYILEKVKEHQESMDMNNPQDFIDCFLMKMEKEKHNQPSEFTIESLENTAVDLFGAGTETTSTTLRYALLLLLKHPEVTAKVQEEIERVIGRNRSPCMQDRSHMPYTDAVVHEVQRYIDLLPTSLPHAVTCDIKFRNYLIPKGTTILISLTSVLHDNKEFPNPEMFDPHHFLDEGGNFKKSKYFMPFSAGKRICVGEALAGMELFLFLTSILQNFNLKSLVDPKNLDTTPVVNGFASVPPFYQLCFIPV
# Assay Details: Inhibition of CYP2C9 (unknown origin) at 10 uM relative to control
# Type: ADME
Value Type: inhibition at 10 µM (%)
Kindly answer with a numeric value in %, unit omitted.

Ask: Recall and state the measured inhibition at 10 µM for O=c1[nH]c(Nc2cc(Cl)cc(Cl)c2)nc2cc(Cl)ccc12 .
Result: 18

Ask: Please list inhibition at 10 µM recorded for the compound O=c1[nH]c(Nc2cc(Cl)cc(Cl)c2)nc2cccc(O)c12
Result: 34

###

# Assay Details: Tmax in rat at 10 mg/kg, po
# Format: ADME, organism-based
# Particulars: in vivo
Value Type: Tmax (h)
Only the number, expressed in h, is required.

Ask: Let me know recorded Tmax for O=c1[nH]c(Nc2cc(Cl)cc(Cl)c2)nc2cccc(O)c12 , thanks.
Result: 1

###

# Assay Details: Cytotoxicity against mouse NIH3T3 cells
# Type: cell-based
Value Type: CC50 (µM)
Write the value in µM as a bare number.

Ask: Please report the measured CC50 for O=c1[nH]c(Nc2cc(Cl)cc(Cl)c2)nc2cccc(O)c12
Result: 60
